Assay read-out IC50 on HPK1 (Homo sapiens (Human), UniProt Q92918); records merged from the literature.

molecule=CN1CCC(Nc2c(-c3nc4ccc(N5CCOCC5)cc4[nH]3)c(=O)[nH]c3sccc23)CC1 observed_result="≤ 50 nM"
molecule=CN1CCN(c2ccc(Nc3cnc(-c4cc[nH]c4)c4c3C(=O)NC4)nc2)CC1 observed_result="< 1000 nM"
molecule=Cc1ccn2c(-c3ccc(Nc4ccc(N5CCOCC5)cn4)c4c3CNC4=O)cnc2c1 observed_result="< 100 nM"
molecule=COc1cc2c(cc1Nc1ncc3c(N)cc(-c4c(C)cccc4F)cc3n1)CN(C)CC2 observed_result="35.1 nM"

Attention now shifts to the item below.
Q. Return IC50 measured with HPK1 (Homo sapiens (Human), UniProt Q92918) given this molecule: Cc1ccn2c(-c3ccc(Nc4ccc(N5CCOC(CN(C)C)C5)cn4)c4c3CNC4=O)cnc2c1F (stereo in doubt)
A. < 100 nM

====

Assay read-out pIC50 on UniProt Q92918; records merged from the literature.
pIC50: −log10 of the molar value.

compound=COc1cc2c(cc1Nc1ncc3ccc(Nc4ccc5c(c4)C(=O)N(C)C5)cc3n1)CN(C)CC2 observed_result=7.33
compound=Cc1cccc(F)c1-n1nc2c(-c3ccc(N4C[C@@H](C)N(C)[C@@H](C)C4)cc3)n[nH]c2cc1=O observed_result="≥ 7.30"

Q. Consider the compound shown here: CCS(=O)(=O)n1nc(N/C(C)=C2\C(=O)Nc3cnc(-c4cnccc4C)cc32)cc1C What is its recorded pIC50?
A. > 7.30

Q. Consider the compound shown here: COC1CN(Cc2nc(Nc3ccc(-c4cnc5cnccn45)c4c3C(=O)NC4)ccc2C2CCOC2)C1 (stereo not drawn) What is its recorded pIC50?
A. < 6.00

Q. Consider the compound shown here: Cn1ccc2c(-c3ncc(Nc4cccc(N5CC6(CCN6)C5)n4)c4c3CNC4=O)ccnc21 What is its recorded pIC50?
A. 6.00 to 7.00

Q. Consider the compound shown here: CN1CCc2c(cc(Nc3ncc4ccnc(C5=CCCCC5)c4n3)c(=O)n2C)C1 What is its recorded pIC50?
A. 9.64

Q. Consider the compound shown here: CN1CCN(c2ccc(Nc3ccc(-c4ccn5ncccc45)c4c3C(=O)NC4)nc2)CC1 What is its recorded pIC50?
A. > 7.00

Q. Consider the compound shown here: N#Cc1ccncc1-c1ccc(NC(=O)c2ccc(=O)n(-c3c(F)cccc3F)n2)c(N2CC[C@@](N)(CO)C2)c1 (single isomer, unassigned) What is its recorded pIC50?
A. > 7.00

Q. Consider the compound shown here: Cc1cc(-c2cnc(N)c(Oc3cnn([C@H]4C[C@H](C#N)C4)c3)n2)cc2c1CN(C)CC2 What is its recorded pIC50?
A. 7.07

Q. Consider the compound shown here: Cc1cc(-c2ccc(Nc3ccc(N4CCN(C)CC4)cn3)c3c2CNC3=O)cc(=O)[nH]1 What is its recorded pIC50?
A. > 6.00

Q. Consider the compound shown here: C[C@@H](c1nc(Nc2ccc(-c3cnc4cc(F)ccn34)c3c2C(=O)NC3)ccc1C1CCOCC1)N(C)C What is its recorded pIC50?
A. ≥ 7.00

Q. Consider the compound shown here: C/C(Nc1cnn(CCN2CCOCC2)c1)=C1/C(=O)Nc2cnc(-c3cnccc3C)cc21 What is its recorded pIC50?
A. > 7.30

Q. Consider the compound shown here: COc1cc2c(cc1Nc1ncc3ccc(-c4cc(C5(CO)CC5)ccc4OC)cc3n1)CNCC2 What is its recorded pIC50?
A. 6.84

Q. Consider the compound shown here: Cc1nn(C(C)C)c2ccc(NC(=O)c3ccc(=O)n(-c4c(F)cccc4F)n3)c(N3C[C@@H](C)[C@@H](N)C3)c12 What is its recorded pIC50?
A. > 7.00

Q. Consider the compound shown here: COc1cc2c(cc1Nc1ncc3ccc(-c4cnn(CCO)c4)cc3n1)CN(C)CC2 What is its recorded pIC50?
A. 8.11

Q. Consider the compound shown here: CN1CCN2c3ccc(-c4n[nH]c5cc(C#N)c(-c6cncc7ccccc67)cc45)cc3OCC2C1 (stereo not drawn) What is its recorded pIC50?
A. 7.00 to 8.00

Q. Consider the compound shown here: CC(C)(C#N)c1cccc(Nc2ncc(C(N)=O)c(Nc3cccc4c3CCNC4=O)n2)c1 What is its recorded pIC50?
A. 8.94
